- tested system: human glucagon receptor (Homo sapiens, UniProt P47871)
- Construct: expressed in transfected cells; host or cells: CHO-K1 cells, stably transfected
- Sequence (P47871 26-477): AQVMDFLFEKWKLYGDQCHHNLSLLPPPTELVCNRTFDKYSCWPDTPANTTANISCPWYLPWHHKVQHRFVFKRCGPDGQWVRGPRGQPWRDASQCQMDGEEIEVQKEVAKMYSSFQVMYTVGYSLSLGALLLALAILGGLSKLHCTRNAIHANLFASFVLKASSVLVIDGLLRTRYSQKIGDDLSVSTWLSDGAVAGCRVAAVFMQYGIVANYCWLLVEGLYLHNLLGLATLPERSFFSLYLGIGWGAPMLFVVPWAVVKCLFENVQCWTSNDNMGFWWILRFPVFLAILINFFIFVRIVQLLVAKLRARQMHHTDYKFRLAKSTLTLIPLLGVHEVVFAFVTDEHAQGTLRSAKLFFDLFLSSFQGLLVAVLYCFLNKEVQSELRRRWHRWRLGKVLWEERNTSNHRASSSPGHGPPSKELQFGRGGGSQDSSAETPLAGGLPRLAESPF
- assay protocol: Glucagon cAMP assay (Cisbio cAMP detection); also: 100 pM glucagon challenge
- Format: cell-based
quantity: Kb (nM)

The following compounds have reported results that may help.
1) CC(C)CC(Nc1ccc(C(=O)NCCC(=O)O)cn1)c1ccc(-c2cccnc2)cc1 (racemic) ... 4600
2) CC(C)CC(Nc1ccc(-c2ccc(C(F)(F)F)cc2)cc1)c1ccc(C(=O)NCCC(=O)O)cn1 (single isomer, unassigned; isomer 1) [Example 2.5] ... 760
3) O=C(O)CCNC(=O)c1ccc(NC(CCC(F)(F)F)c2ccc(-c3ccc(C(F)(F)F)cc3)cc2)nc1 (racemic) ... 700
4) Cc1cc(C(CC(C)C)Nc2ccc(C(=O)NCCC(=O)O)cn2)cnc1-c1ccc(C(F)(F)F)cc1 (stereo not shown) ... 370
5) Cc1cc(C(CC(C)C)Nc2ncc(C(=O)NCCC(=O)O)cn2)ccc1-c1ccc(C(F)(F)F)cc1 (racemic) ... 390

I: CC(Nc1ccc(-c2ccc(C(F)(F)F)cc2)cc1)c1ccc(C(=O)NCCC(=O)O)cn1 (racemic)
II: CC(C)C[C@H](Nc1ccc(C(=O)NCCC(=O)O)cn1)c1ccc(-c2ccc(C(F)(F)F)cc2)cc1
## Input Dear colleague, could you let me know whether I or II has the lower recorded Kb? Thanks. Answer by quoting the chosen item's label.
## Output II

* * *

- tested system: human glucagon receptor (Homo sapiens, UniProt P47871)
- Construct: expressed in transfected cells; host or cells: CHO-K1 cells, stably transfected
- assay protocol: Glucagon cAMP assay (Cisbio cAMP detection); also: 100 pM glucagon challenge
- Format: cell-based
quantity: Kb (nM)

The following compounds have reported results that may help.
1) CCC(Nc1cnc(C(=O)NCCC(=O)O)cn1)c1ccc(-c2ccc(C(F)(F)F)cc2)cc1 (racemic) ... 540
2) CCOc1ccc(-c2ccc(C(CC(C)C)Nc3ccc(C(=O)NCCC(=O)O)cn3)cc2)cc1 (racemic) ... 92
3) O=C(O)CCNC(=O)c1ccc(NC(c2cnc(-c3ccc(C(F)(F)F)cc3)nc2)C2CCCC2)nc1 (stereo not drawn) ... 56

a: CCC(Nc1cnc(-c2ccc(C(F)(F)F)cc2)c(C)c1)c1ccc(C(=O)NCCC(=O)O)cn1 (racemic)
b: CC(C)CC(Nc1ccc(C(=O)NCCC(=O)O)cn1)c1ccc(-c2ccc(C(F)(F)F)nc2)cc1 (racemic)
c: CC(C)CC(Nc1cnc(C(=O)NCCC(=O)O)cn1)c1ccc(-c2ccc(C(F)(F)F)cc2)cc1 (racemic) [Example 1.16]
d: CC(C)CC(Nc1ccc(C(=O)NCCC(=O)O)cn1)c1ccc(-c2ccccn2)cc1 (racemic)
## Input Order these by Kb, descending, and give the full ranking. Please list the labels in the order you were asked to rank them.
## Output d, a, b, c

1: CC(C)CC(Nc1ccc(C(=O)NCCC(=O)O)cn1)c1ccc(-c2ccc(S(C)(=O)=O)cc2)cc1 (racemic)
2: CC(C)CC(Nc1cnc(C(=O)NCCC(=O)O)cn1)c1ccc(-c2ccc(C(F)(F)F)cc2)cc1 (single isomer, unassigned; isomer 2) [Example 1.18]
3: Cc1cc(NC(CC(C)C)c2ccc(C(=O)NCCC(=O)O)cn2)cc(C)c1-c1ccc(C(F)(F)F)cc1 (racemic) [Example 2.1]
4: CC(C)CC(Nc1ccc(C(=O)NCCC(=O)O)cn1)c1ccc(-c2ccccc2)cc1 (racemic)
## Input Order these by Kb, descending, and give the full ranking. Please list the labels in the order you were asked to rank them.
## Output 1, 4, 2, 3

A: CC(C)CC(Nc1ccc(C(=O)NCCC(=O)O)cn1)c1ccc(-c2ccc(OC(F)(F)F)cc2)cc1 (racemic)
B: O=C(O)CCNC(=O)c1ccc(NC(c2cnc(-c3ccc(C(F)(F)F)cc3)nc2)C2CCCCC2)nc1 (racemic)
## Input Dear colleague, could you let me know whether A or B has the lower recorded Kb? Thanks. Answer by quoting the chosen item's label.
## Output B

a: CC(Oc1ccc(-c2ccc(C(F)(F)F)cc2)cc1)c1ccc(C(=O)NCCC(=O)O)cn1 (racemic)
b: Cc1cc(C(CC(C)C)Nc2ncc(C(=O)NCCC(=O)O)cn2)cc(C)c1-c1ccc(C(F)(F)F)cc1 (racemic)
## Input Sorting by Kb in descending order, would a or b appear first? Answer by quoting the chosen item's label.
## Output a

* * *

- tested system: human glucagon receptor (Homo sapiens)
- Construct: expressed in transfected cells; host or cells: CHO-K1 cells, stably transfected
- assay protocol: Glucagon cAMP assay (Cisbio cAMP detection); also: 100 pM glucagon challenge
- Format: cell-based
quantity: Kb (nM)

The following compounds have reported results that may help.
1. CCc1ccc(-c2ccc(C(CC(C)C)Nc3ccc(C(=O)NCCC(=O)O)cn3)cc2)cc1 (racemic) [Example 1.54] ... 230
2. CCCC(Nc1cnc(-c2ccc(C(F)(F)F)cc2)nc1)c1ccc(C(=O)NCCC(=O)O)cc1 (single isomer, unassigned; isomer 2) [Example 2.17] ... 420
3. O=C(O)CCNC(=O)c1ccc(NC(CC2CC2)c2ccc(-c3ccc(C(F)(F)F)cc3)cc2)nc1 (stereo not drawn) [Example 4.14] ... 110
4. CCCC(Nc1ccc(C(=O)NCCC(=O)O)cn1)c1ccc(-c2ccc(C(F)(F)F)cc2)cc1OC (stereo not drawn) [Example 4.24] ... 88
5. CCCC(Nc1ccc(-c2ccc(C(F)(F)F)cc2)nn1)c1ccc(C(=O)NCCC(=O)O)cc1 (racemic) [Example 2.14] ... 290
6. CC(C)CC(Nc1ncc(C(=O)NCCC(=O)O)cn1)c1ccc(-c2ccc(C(F)(F)F)cc2)cc1 (single isomer, unassigned; isomer 1) [Example 1.5] ... 2900
7. O=C(O)CCNC(=O)c1ccc(NC(c2ccc(-c3ccc(C(F)(F)F)cc3)cc2)C2CC2)nc1 (racemic) [Example 1.34] ... 550
8. COc1ccccc1-c1ccc(C(CC(C)C)Nc2ccc(C(=O)NCCC(=O)O)cn2)cc1 (racemic) [Example 1.43] ... 190
9. O=C(O)CCNC(=O)c1ccc(NC(c2ccc(-c3ccc(C(F)(F)F)cc3)cc2)C2CCOCC2)nc1 (racemic) [Example 4.7] ... 220
10. Cc1ccc(-c2ccc(C(CC(C)C)Nc3ccc(C(=O)NCCC(=O)O)cn3)cc2)cc1 (racemic) [Example 1.50] ... 70

A: CCCC(Nc1ccc(C(=O)NCCC(=O)O)cn1)c1ccc(-c2ccc(C(F)(F)F)cc2)cc1 (single isomer, unassigned; isomer 1) [Example 1.8]
B: CCCC(Nc1cnc(-c2ccc(C(F)(F)F)cc2)nc1)c1ccc(C(=O)NCCC(=O)O)cc1 (racemic) [Example 2.15]
## Input Sorting by Kb in descending order, would A or B appear first? Answer by quoting the chosen item's label.
## Output A
(A: 1000 nM, B: 120 nM)
